System: EPHA5;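 note: KINOMEscan kinase panel screen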
Details: concentration: 1 μM,replicates: in singlicate; n = 1
Measurement kind: %Inh

Study these solved cases before continuing.
INSERT INTO assay_data (compound, reported_measurement) VALUES
  ('CN(C)CCOc1ccc(-c2cc(-c3c[nH]nc3-c3ccccn3)ccn2)cc1', '5%'),
  ('Cc1ccc(-n2nc(C(C)(C)C)cc2NC(=O)Nc2ccc(OCCN3CCOCC3)c3ccccc23)cc1', '0%'),
  ('O=C(NCCCN1CCOC1=O)c1cnc(NCc2cc(Cl)ccc2Cl)nc1NC1CCCC1', '17%'),
  ('Cl.Oc1cc(-c2nc(-c3ccccc3)[nH]c2-c2ccncc2)ccc1Cl', '23%');

Prompt: %Inh of C=CC(=O)Nc1cc2c(Nc3ccc(F)c(Cl)c3)ncnc2cc1OCCCN1CCOCC1 on EPHA5?
Response: 7%

Prompt: Lab note: need %Inh with EPHA5 for entry NC(=O)c1cc(-c2ccccc2)cc2c(C3CCNCC3)c[nH]c12 , please look it up.
Response: 0%

Prompt: What reported %Inh corresponds to O=C(NCCNc1ccnc(NCc2ccc(F)cc2)n1)c1cc2ccccc2s1 on EPHA5?
Response: 0%

Prompt: Find %Inh (EPHA5) for the entry CC(C)Nc1cc(-c2ccc3c(N)n[nH]c3c2)nc(N)n1
Response: 0%

Prompt: Give recorded %Inh with EPHA5 for the following compound: C[C@@H]1CCN(C(=O)CC#N)C[C@@H]1N(C)c1ncnc2[nH]ccc12
Response: 0%
